B1: CHCHD6 (parent)
chain: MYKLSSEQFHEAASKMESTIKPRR

- Variants of: B1
- Method description: protein stability index of a GFP-peptide fusion (GPS, HEK-293T) (PSI 1-6); higher = more stable;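 note: lentivirally expressed fusions sorted by FACS into six bins by GFP to DsRed ratio, PSI derived from sequencing read proportions per bin multiplied by bin number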
- Condition context: c terminus: a fixed tail appended

{"columns": ["Variant notation", "protein stability index"],
 "data": [
  ["E17K", 2.73],
  ["R24T", 4.12],
  ["K3C", 3.63],
  ["K15S", 4.04],
  ["A12Q", 4.04],
  ["R24P", 3.7],
  ["Q8W", 2.5],
  ["H10S", 4.15],
  ["K15I", 3.67],
  ["I20V", 4.08]
]}
